- Tested on: K-562 leukemia
- method-notes: NCI-60 one-dose screen, 48 h (100 = growth as untreated, 0 = no growth, -100 = all killed)
- experimental-conditions: 10 µM unless noted
This is part of a sample that, as a whole, favours compounds with a hit. Of some 83,000 tested, about 20% had one in any assay.
Quick reference: growth of the listed items.
Kindly answer with a numeric value in %, unit omitted.

Field: example entries. Status: answers known.
{"columns": ["molecule", "output-unit", "growth"],
 "data": [
  ["Fc1cc(-c2nnc3sc(-c4ccc(Cl)cc4Cl)nn23)c(Cl)cc1Cl", "%", 107],
  ["O=c1c2cccc(F)c2sc2c(NCCCNCCO)nc3ccccc3c12", "%", -20],
  ["COc1ccc2c(c1)/C(=C/c1sc(=S)n(Cc3ccco3)c1O)C=N2", "%", 15.8],
  ["COc1cc(C2CC(c3cccc(Br)c3)=NN2C(C)=O)cc(OC)c1OC (stereo not given)", "%", 49.2],
  ["CCN1C(=O)N(CC)C2Nn3c(s/c(=C4\\C(=O)N(CCC(C)C)c5ccccc54)c3=O)=NC21 (stereo not given)", "%", 26.1]
]}

# returns recorded growth (system: K-562 leukemia) for "Cc1ccc(C(C)C)cc1C(=O)C[n+]1ccccc1"
105

# query: growth | item CCC12CCC[N+]3([O-])CCC4(C(=Nc5ccccc54)C(O)(C(=O)OC)C1)C23 (stereo not given) | system: K-562 leukemia
109

// map "Oc1ccc(C#CCOc2ccccc2)cc1CNCCN(Cc1ccccn1)Cc1ccccn1" to recorded growth (system: K-562 leukemia)
8.65

Param readout= growth; system= K-562 leukemia; entry= "COc1ccc(C2=Nn3c(nnc3-c3cc(Cl)cc(Cl)c3Cl)SC2)cc1" ; returns value.
2.96

Find the measured growth: item "Cc1cccc2c1S/C(=C/c1ccc([N+](=O)[O-])cc1)C2=O" , target or system K-562 leukemia.
42.2
